Hi there, I'd appreciate the recorded viability for every entry that follows.
Assay: HUVEC growth inhibition – cell-based, human, primary screen (AID 575);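 also: 100% = median of untreated cell wells with 0.1% DMSO on each plate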
Settings: HUVEC proliferation, CellTiter-Glo luminescence, 72 h; at 10 µM; hits give low values
Give just the numeric value; % need not be written.

Challenge: Could you share which viability value was measured for O=C(COc1ccccc1)NCC(c1cccs1)N1CCOCC1 (stereo not given) ?
Response given: 91.7

Challenge: Could you share which viability value was measured for "O=S(=O)(NCc1ccco1)c1cccc2cccnc12" ?
Response given: 89.7

Challenge: Could you share which viability value was measured for "CCC(=O)O[C@]1(C(=O)CCl)[C@@H](C)C[C@H]2[C@@H]3CCC4=CC(=O)C=C[C@]4(C)[C@@]3(F)[C@@H](O)C[C@@]21C" ?
Response given: 84.9

Challenge: Could you share which viability value was measured for "N#CCCNCC1(c2ccccc2)CCCC1" ?
Response given: 106

Challenge: Could you share which viability value was measured for "Nc1nc2sc3c(c2c(=O)s1)CCCC3" ?
Response given: 60.3
